Test system: Hepatitis C virus
Test summary: Antiviral activity against wild type HCV genotype 1b assessed as replication level
Type: functional, Hepacivirus hominis
Cond: Hepatitis C virus, genotype 1b
pEC50: −log10 of the molar value.
Reported property: pEC50

>>> val("COC(=O)N[C@H](C(=O)N1CCC[C@H]1c1ncc(-c2ccc(-c3ccc(-c4cnc([C@@H]5CCCN5C(=O)[C@@H](NC(=O)OC)C(C)C)[nH]4)cc3)cc2)[nH]1)C(C)C [DACLATASVIR]")
11.59

[I] COC(=O)N[C@H](C(=O)N1CCC[C@H]1c1ncc(-c2ccc(Oc3ccc(-c4cnc([C@@H]5CCCN5C(=O)[C@@H](NC(=O)OC)C(C)C)[nH]4)cc3)cc2)[nH]1)C(C)C
[II] COC(=O)N[C@H](C(=O)N1CCC[C@H]1c1nc(Br)c(-c2ccc(Oc3ccc(-c4[nH]c([C@@H]5CCCN5C(=O)[C@@H](NC(=O)OC)C(C)C)nc4Br)cc3)cc2)[nH]1)C(C)C
Task: Which entry has a larger number for pEC50, I or II ? // caller expects the label of the chosen entry
Result: II
(II: 10.30, I: 7.52)

---

Tested on: Hepatitis C virus
Test summary: Antiviral activity against wild type HCV genotype 1b assessed as replication level
Type: functional, Hepacivirus hominis
Cond: Hepatitis C virus, genotype 1b
pEC50: −log10 of the molar value.
Reported property: pEC50

>>> val("COC(=O)N[C@H](C(=O)N1C[C@H](n2cc(C(=O)OC)nn2)C[C@H]1c1ncc(-c2ccc(-c3ccc(-c4cnc([C@@H]5C[C@@H](n6cc(C(=O)OC)nn6)CN5C(=O)[C@@H](NC(=O)OC)C(C)C)[nH]4)cc3)cc2)[nH]1)C(C)C")
10.93
>>> val("COC(=O)N[C@H](C(=O)N1C[C@@H](N=[N+]=[N-])C[C@H]1c1ncc(-c2ccc(-c3ccc(-c4cnc([C@@H]5C[C@H](N=[N+]=[N-])CN5C(=O)[C@@H](NC(=O)OC)C(C)C)[nH]4)cc3)cc2)[nH]1)C(C)C")
10.64
>>> val("COC(=O)N[C@H](C(=O)N1C[C@H](N=[N+]=[N-])C[C@H]1c1ncc(-c2ccc(-c3ccc(-c4cnc([C@@H]5C[C@@H](N=[N+]=[N-])CN5C(=O)[C@@H](NC(=O)OC)C(C)C)[nH]4)cc3)cc2)[nH]1)C(C)C")
10.74
